- Test system: CYP2C8 (Homo sapiens)
- Sequence (P10632 whole entry): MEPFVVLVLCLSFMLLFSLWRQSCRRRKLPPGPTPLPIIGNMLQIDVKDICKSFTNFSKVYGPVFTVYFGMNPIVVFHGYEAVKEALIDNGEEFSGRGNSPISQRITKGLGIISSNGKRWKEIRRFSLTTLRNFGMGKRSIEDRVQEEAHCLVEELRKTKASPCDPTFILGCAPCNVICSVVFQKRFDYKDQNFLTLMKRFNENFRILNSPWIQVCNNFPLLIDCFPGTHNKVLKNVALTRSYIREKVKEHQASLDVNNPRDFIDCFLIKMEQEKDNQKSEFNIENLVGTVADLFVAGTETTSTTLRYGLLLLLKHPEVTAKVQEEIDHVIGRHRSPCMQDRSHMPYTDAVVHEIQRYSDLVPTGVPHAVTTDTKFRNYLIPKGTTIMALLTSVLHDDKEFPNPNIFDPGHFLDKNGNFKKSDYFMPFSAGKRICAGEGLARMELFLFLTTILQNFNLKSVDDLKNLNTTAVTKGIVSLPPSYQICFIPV
- Method summary: CYP inhibition assay
- Assay type: cell-based
Property name: IC50 (nM)

In [3]: df
Out[3]:
                                   compound            test_system  measured_number
0  CN(C[c-]1cccc1)CC(O)(Cn1cncn1)c1ccc(F)cc1F.Cl.[Fe+2].c1cc[cH-]c1 (stereo not shown)  CYP2C8 (Homo sapiens)              640

FYI, the data here is from paper PMC8341145.
